# Experimental Target: COX-2 (Mus musculus (Mouse), UniProt Q05769)
# Sequence (Q05769 18-604): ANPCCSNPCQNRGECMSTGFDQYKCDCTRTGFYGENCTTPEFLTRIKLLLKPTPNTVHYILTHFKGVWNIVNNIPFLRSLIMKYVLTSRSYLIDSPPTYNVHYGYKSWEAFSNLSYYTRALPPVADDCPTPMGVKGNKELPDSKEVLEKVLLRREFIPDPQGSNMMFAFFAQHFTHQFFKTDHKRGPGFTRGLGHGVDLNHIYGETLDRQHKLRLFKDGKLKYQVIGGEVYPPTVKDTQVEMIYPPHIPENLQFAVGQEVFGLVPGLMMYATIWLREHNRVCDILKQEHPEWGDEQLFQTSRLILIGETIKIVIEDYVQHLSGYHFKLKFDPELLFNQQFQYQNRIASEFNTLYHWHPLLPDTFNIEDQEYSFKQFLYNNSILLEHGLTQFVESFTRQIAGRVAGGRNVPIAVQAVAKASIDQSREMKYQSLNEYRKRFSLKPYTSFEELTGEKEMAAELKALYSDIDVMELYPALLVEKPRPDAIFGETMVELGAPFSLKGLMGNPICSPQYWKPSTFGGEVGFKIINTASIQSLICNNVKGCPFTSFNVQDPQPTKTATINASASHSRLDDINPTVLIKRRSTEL
# Experimental Protocol: Evaluation of COX-2 activity: PGE2 production in LPS-stimulated J774 cells
# Stated Conditions: J774 cells stimulated 24 hours with LPS 10 μg/mL; PGE2 by radio-immunological assay; read-out: Cyclooxygenase inhibition COX-2 IC50
pIC50: −log10 of the molar value.
Each record here notes measured pIC50.
Value Kind: pIC50

Cc1c(CCOCCO[N+](=O)[O-])cc(-c2ccc(S(C)(=O)=O)cc2)n1-c1ccccc1 | 7.77
Cc1c(CC(=O)OCCO[N+](=O)[O-])cc(-c2ccc(S(C)(=O)=O)cc2)n1-c1cccc(F)c1 | 7.72
Cc1c(CCOCCO[N+](=O)[O-])cc(-c2ccc(S(C)(=O)=O)cc2)n1-c1cccc(F)c1 | 7.55
Cc1c(CCOCCO[N+](=O)[O-])cc(-c2ccc(S(C)(=O)=O)cc2)n1-c1ccc(F)cc1 | 7.85
Cc1c(CCOCCCO[N+](=O)[O-])cc(-c2ccc(S(C)(=O)=O)cc2)n1-c1ccc(F)cc1 | 6.72
Cc1c(CC(=O)NCCO[N+](=O)[O-])cc(-c2ccc(S(C)(=O)=O)cc2)n1-c1ccc(F)cc1 | 6.62
Cc1c(CC(=O)NC(CO)C(=O)O)cc(-c2ccc(S(C)(=O)=O)cc2)n1-c1cccc(F)c1 (stereo in doubt) | 7.24
Cc1c(CC(=O)OCCO)cc(-c2ccc(S(C)(=O)=O)cc2)n1-c1ccccc1 | 7.57
CSc1ccc(-n2c(-c3ccc(S(C)(=O)=O)cc3)cc(CC(=O)OCCCO)c2C)cc1 | 6.59
Cc1c(C(N)C(=O)OCCO[N+](=O)[O-])cc(-c2ccc(S(C)(=O)=O)cc2)n1-c1ccc(F)cc1 (racemic) | 6.13
COc1ccc(-n2c(-c3ccc(S(C)(=O)=O)cc3)cc(CC(=O)OCCO)c2C)cc1 | 5.96
Cc1c(CC(=O)NC(CO)C(=O)O)cc(-c2ccc(S(C)(=O)=O)cc2)n1-c1ccc(F)cc1 (stereo in doubt) | 6.80
